Listed compounds paired with reported Population Normal (%)
Test system: Fibroblast
protocol text: Multiplex assay against human fibroblast
Format: toxicity, cell-based
run parameters: 48 h, 1 µM, compound concentration 1 uM, replicate 2
measured property: Population Normal (%)

compound=Cn1cc(-c2[nH]c3cc(NC(=O)[C@H](N)C4CCCCC4)cc4c3c2C=NNC4=O)cn1 measured_property="Population Normal (%)" value_observed=84
compound=OC1(c2ccc(Cl)cc2)CCN(Cc2c[nH]c3ccccc23)CC1 measured_property="Population Normal (%)" value_observed=85
compound="CN1CCC[C@@H]1CCO[C@](C)(c1ccccc1)c1ccc(Cl)cc1.O=C(O)/C=C/C(=O)O [CLEMASTINE FUMARATE]" measured_property="Population Normal (%)" value_observed=83
compound=Cc1[nH]c(/C=C2\C(=O)Nc3ccc(S(=O)(=O)N(C)c4cccc(Cl)c4)cc32)c(C)c1C(=O)N1CCN(C)CC1 measured_property="Population Normal (%)" value_observed=82
